System: TTR
Experiment: TTR editing in primary human hepatocytes electroporated with Spy Cas9 protein loaded with dgRNAs (Table 7)
Format: cell-based
Conditions: dgRNA electroporated with Spy Cas9 protein (RNP)
OBSERVABLE: Avg % Insert (%)
Answer in %, number only, no unit symbol.

CACAUGCACGGCCACAUUGA (tested as dual guide RNA, chemistry not given here) [CR003350] : 22.40
CUUCUCUACACCCAGGGCAC (tested as dual guide RNA, chemistry not given here) [CR003342] : 31.87
AGCCUUUCUGAACACAUGCA (tested as dual guide RNA, chemistry not given here) [CR003351] : 30.83
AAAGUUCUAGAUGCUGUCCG (tested as dual guide RNA, chemistry not given here) [CR003346] : 20.83
GACGACAGCCGUGGUGGAAU (tested as dual guide RNA, chemistry not given here) [CR003388] : 5.47

For reference, reported Avg % Insert for CAUUGAUGGCAGGACUGCCU (tested as dual guide RNA, chemistry not given here) [CR003347] stands at 81.97

For reference, reported Avg % Insert for AGACACCAAAUCUUACUGGA (tested as dual guide RNA, chemistry not given here) [CR003367] stands at 22.93

====

System: TTR
Assay: TTR editing in HepG2 cells transfected with Spy Cas9 mRNA and dgRNAs (Table 6)
Assay type: cell-based, human
Details: HepG2 cells co-transfected with Spy Cas9 mRNA (SEQ ID NO:2) and dgRNAs
Protocol: HepG2 cell line. The human hepatocellular carcinoma cell line HepG2 (American Type Culture Collection, Cat. HB-8065) was cultured in DMEM media supplemented with 10% fetal bovine serum. Cells were counted and plated on Bio-coat collagen I coated 96-well plates (ThermoFisher, Cat. 877272) at a density of 10,000 cells/well in a 96-well plate 24 hours prior to transfection. Cells were transfected with Lipofectamine 2000 (ThermoFisher, Cat. 11668019) per the manufacturer's protocol. […]
OBSERVABLE: Avg % Insert (%)
Answer in %, number only, no unit symbol.

GGAGUAGGGGCUCAGCAGGG (tested as dual guide RNA, chemistry not given here) [CR003382] : 1.58

Assay TTR, sample AAAGGCUGCUGAUGACACCU (tested as dual guide RNA, chemistry not given here) [CR003353] , Avg % Insert read: 56.71

Assay TTR, sample GCAUGGGCUCACAACUGAGG (tested as dual guide RNA, chemistry not given here) [CR003362] , Avg % Insert read: 16.50

Assay TTR, sample AUAGGAGUAGGGGCUCAGCA (tested as dual guide RNA, chemistry not given here) [CR003383] , Avg % Insert read: 6.19

Assay TTR, sample UGAAUCCAAGUGUCCUCUGA (tested as dual guide RNA, chemistry not given here) [CR005303] , Avg % Insert read: 20.55

Assay TTR, sample GGGAUUGGUGACGACAGCCG (tested as dual guide RNA, chemistry not given here) [CR003390] , Avg % Insert read: 22.44

Assay TTR, sample AGUCCCUCAUUCCUUGGGAU (tested as dual guide RNA, chemistry not given here) [CR003392] , Avg % Insert read: 14.32

====

System: TTR
Assay: TTR editing in primary human hepatocytes electroporated with Spy Cas9 protein loaded with dgRNAs (Table 7)
Format: cell-based
Settings: dgRNA electroporated with Spy Cas9 protein (RNP)
OBSERVABLE: Avg % Deletion (%)
Answer in %, number only, no unit symbol.

CUGCUCCUCCUCUGCCUUGC (tested as dual guide RNA, chemistry not given here) [CR003335] : 2.50
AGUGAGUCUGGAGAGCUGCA (tested as dual guide RNA, chemistry not given here) [CR003359] : 7.50
UUCUUUGGCAACUUACCCAG (tested as dual guide RNA, chemistry not given here) [CR003357] : 0.77

For reference, reported Avg % Deletion for UGUCUGUCUUCUCUCAUAGG (tested as dual guide RNA, chemistry not given here) [CR005307] stands at 3.00
